# target-or-test-system: Coagulation factor VII/tissue factor (Homo sapiens)
# Sequence (P08709 61-212 limits assumed): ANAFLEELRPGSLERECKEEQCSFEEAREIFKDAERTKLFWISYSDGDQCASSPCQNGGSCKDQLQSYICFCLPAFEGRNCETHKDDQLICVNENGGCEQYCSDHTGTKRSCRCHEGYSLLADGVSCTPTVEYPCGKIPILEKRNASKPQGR
# Sequence (P08709 213-466 limits assumed): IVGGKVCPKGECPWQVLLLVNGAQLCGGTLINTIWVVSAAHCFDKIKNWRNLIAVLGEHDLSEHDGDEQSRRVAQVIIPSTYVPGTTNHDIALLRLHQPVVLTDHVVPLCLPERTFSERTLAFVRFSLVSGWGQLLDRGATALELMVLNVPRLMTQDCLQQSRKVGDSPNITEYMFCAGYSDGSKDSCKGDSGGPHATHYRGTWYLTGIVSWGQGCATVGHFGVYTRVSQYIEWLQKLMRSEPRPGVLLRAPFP
# Sequence (P13726 33-295 partner limits assumed): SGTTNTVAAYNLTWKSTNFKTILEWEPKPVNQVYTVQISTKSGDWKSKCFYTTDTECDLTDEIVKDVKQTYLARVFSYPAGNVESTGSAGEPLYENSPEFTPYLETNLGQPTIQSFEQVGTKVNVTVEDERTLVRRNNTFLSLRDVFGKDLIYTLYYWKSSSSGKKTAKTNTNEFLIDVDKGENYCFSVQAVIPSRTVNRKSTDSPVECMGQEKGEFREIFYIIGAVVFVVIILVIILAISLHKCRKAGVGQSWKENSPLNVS
# protocol-description: Inhibition of human recombinant TF/F7a complex using S2288 as substrate preincubated for 15 mins followed by protein addition measured for 60 mins
pKi: −log10 of the molar value.
quantity-kind: pKi

compound	pKi
Nc1nccc2cc(NC3C(=O)NCc4cccc(c4)NC(=O)CCCCc4ccc3cc4)ccc12 (centres undefined)	5.21

a. CC(C)S(=O)(=O)c1ccc2cc1CNC(=O)[C@H](Nc1ccc3c(N)nccc3c1)c1ccc(cc1)CCCC(=O)N2
b. CCS(=O)(=O)c1ccc2cc1CNC(=O)[C@H](Nc1ccc(C(=N)N)cc1)c1ccc(cc1)CCCC(=O)N2
c. Nc1nccc2cc(NC3C(=O)NCc4cccc(c4)NC(=O)CCc4ccc3cc4)ccc12 (centres undefined)
Arrange the 3 compounds from largest to smallest pKi. Enter labels, ranked according to the request.
b, a, c
